Some compounds, each annotated with its measured TGI.
Test system: K-562 leukemia
method-summary: NCI tumour cell line growth inhibition, 48 h

COc1ccc(-c2cc(-c3cc(Cl)cc(Br)c3O)[nH]c(=O)n2)cc1 | 41.7 µM
Cc1cc(=O)[nH]c(NNC(C#N)c2c(O)ccc3ccccc23)n1 (stereo not given) | > 100 µM
Cn1c2ccccc2c2c3[nH][nH]c(=O)c3c3c4ccccc4[nH]c3c21 | 15.9 µM
CC1(C)OCC([C@H]2CC23SCCCS3)O1 (stereo not given in full) | > 100 µM
CN1C=Cc2nccc3cc4c(c1c23)OCO4 | > 100 µM
COC(=O)N/N=C(/CCC(=O)Nc1ccc(C)c(C)c1)CC(=O)C(C)(C)C | > 100 µM

stdin: Look up TGI: O=C(CN1CCOCC1)c1ccc2c(c1)oc(=O)n2CCN1CCCC1
stdout: > 100 µM

stdin: What do we get for COCCN1CCN(Cc2ccc(-c3n[nH]c4c3C(=O)c3c(NC(=O)NN5CCOCC5)cccc3-4)cc2)CC1 ?
stdout: > 10 µM

stdin: What do we get for CN[C@@H](C)[C@H](N)c1ccccc1 ?
stdout: > 100 µM

stdin: What do we get for C[CH2][Ge]([CH2]C)([CH2]C)[O]C(=O)CCC(=O)[O][Ge]([CH2]C)([CH2]C)[CH2]C ?
stdout: > 100 µM

====

Tested on: NCI-H460 lung
Pick one: active, inactive

Worked cases, answers included:
CCCCNC(=O)c1cc(NCc2cc(O)ccc2O)ccc1O | inactive
COC(=O)/C=C1/SC(N2N=C(c3cccs3)CC2c2ccc(F)cc2)=NC1=O (stereo not drawn) | inactive
C[n+]1c(-c2ccc(/C=N/NC(=O)c3ccc(C(=O)N/N=C/c4ccc(-c5cn6ccccc6[n+]5C)cc4)cc3)cc2)cn2ccccc21 | inactive
Cc1cc(N2CCCC2)nc(NCc2cc(Nc3ccnc4cc(Cl)ccc34)ccc2F)n1 | inactive
C=CC/C(=C\COP(=O)(OCc1ccc([N+](=O)[O-])o1)N(C)CCCCCl)CC/C=C(\C)CCC=C(C)C (stereo not drawn) | inactive
N=C(N)c1ccc(NCCOCCNc2ccc(C(=N)N)cc2)cc1 | inactive
CCCCC(=O)N/N=C/c1c(O)ccc2ccccc12 | inactive
C=C(CC(=O)O)C(=O)O (tested in a mixture with another compound) | inactive
COCCN1CCN(Cc2ccc(-c3n[nH]c4c3C(=O)c3c(NC(=O)NN5CCOCC5)cccc3-4)cc2)CC1 | active
O=C1Nc2ccccc2/C1=C\c1nc(C2CCN(S(=O)(=O)c3ccc(F)cc3)CC2)n2ccccc12 | inactive

stdin: Given Cc1cc2nc3cc(C)c(N)cc3[n+](-c3ccccc3)c2cc1N , state the outcome it received in this test.
stdout: inactive

stdin: What do we get for c1cncc(C2Nc3cccc4cccc(c34)N2)c1 ?
stdout: inactive

stdin: What do we get for CC(=O)C1=C(C)N(C)C2(O)C=CC(=O)C3=C(O)c4ccccc4C(=O)C312 (stereo not drawn) ?
stdout: inactive

stdin: What do we get for CCCNC(=O)c1ccc(Cl)cc1Cl ?
stdout: inactive

stdin: What do we get for CCN(CC)CCN(Cc1ccc(F)cc1)c1ccc(CO)c(Cl)c1 ?
stdout: inactive

stdin: What do we get for COc1ccc2c(Cl)cc(NC(=O)Nc3c(C)cccc3C)nc2c1 ?
stdout: inactive

stdin: What do we get for Cc1cc(C(=O)O)c(C)n1-c1cccc(C(=O)O)c1 ?
stdout: inactive

stdin: What do we get for CN1CCN(Cc2ccc(NC(=O)c3cncc(C#Cc4cncc5nccnc45)c3)cc2C(F)(F)F)CC1 ?
stdout: inactive
